# TARGET_OF_ASSAY: human GLP1-R (Homo sapiens, UniProt P43220)
# Sequence (P43220 24-463): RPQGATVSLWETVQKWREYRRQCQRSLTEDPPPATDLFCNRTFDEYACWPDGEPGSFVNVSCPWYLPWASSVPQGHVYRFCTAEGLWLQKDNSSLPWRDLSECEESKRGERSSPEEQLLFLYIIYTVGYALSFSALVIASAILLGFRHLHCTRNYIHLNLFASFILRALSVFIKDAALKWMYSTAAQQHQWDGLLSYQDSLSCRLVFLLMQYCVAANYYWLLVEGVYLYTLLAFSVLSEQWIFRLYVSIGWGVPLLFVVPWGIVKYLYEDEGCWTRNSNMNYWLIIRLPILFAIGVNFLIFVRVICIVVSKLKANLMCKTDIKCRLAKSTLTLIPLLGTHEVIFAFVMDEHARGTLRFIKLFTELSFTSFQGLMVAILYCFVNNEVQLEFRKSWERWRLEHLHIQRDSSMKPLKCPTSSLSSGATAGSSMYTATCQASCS
# TEST_PROTOCOL: GLP1-R internalization assay in HEK293 cells
# Format: cell-based
# TEST_CONDITIONS: normalized to maximum concentration of GLP-1 (100%)
Starred links: 1 amine or outer side, 2 acyl side, 3 side chain; linkers in the order of their positions; H or OH if unused. Non-standard residues stand in square brackets, D forms with d. Groups on a side chain read outwards from the residue. No end group written: not given here. *: point of attachment. C20 diacid = O=C(O)CCCCCCCCCCCCCCCCCCC(=O)*; C18 diacid = O=C(O)CCCCCCCCCCCCCCCCC(=O)*; αMePhe(2-F) = C[C@](N)(Cc1ccccc1F)C(=O)O; γGlu = O=C(O)[C@H](CCC(=O)[*:2])N[*:1]; αMe4Pal = C[C@](N)(Cc1ccncc1)C(=O)O; 4Pal = N[C@@H](Cc1ccncc1)C(=O)O; αMeL = CC(C)C[C@](C)(N)C(=O)O; αMeS = C[C@](N)(CO)C(=O)O; Orn = NCCC[C@H](N)C(=O)O; AEEA = NCCOCCOCC(=O)O; Aib = CC(C)(N)C(=O)O
Recorded Internalization % TOP for the following substances
MEASURED_METRIC: Internalization % TOP (%)

| SUBSTANCE | UNIT | READING |
| --- | --- | --- |
| H-Y[Aib]QGTFTSDFSK[αMeL]LDKK([AEEA-γGlu-C20 diacid])AQ[Aib]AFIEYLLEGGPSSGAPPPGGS-NH2 [Example 18] | % | 74.1 |
| Y[Aib]QGTFTSDFSK[αMeL]LDKK([AEEA-γGlu-C18 diacid])AQ[Aib]AFIEYLLEGGPSSGAPPPSEG-NH2 [Example 48] | % | 55.2 |
| H-Y[Aib]QGTFTSDFS[Orn][αMeL]LDKK([AEEA-γGlu-C18 diacid])AQ[Aib]AFIEWLLEGGSSSGAPPPSGT-NH2 [Example 174] | % | 52.8 |
| H-Y[Aib]QGT[αMePhe(2-F)]TSDYSILLDKIAAK([AEEA-γGlu-C20 diacid])AFIEYLIEGGPSSGEPPPSEG-NH2 [Example 296] | % | 87.2 |
| H-Y[Aib]QGT[αMePhe(2-F)]TSD[4Pal][αMeS]ILLD[Orn]K([γGlu-γGlu-C18 diacid])AQ[Aib][Orn]FI[dE]YLIEGGPSSGEPPPSGTGE-NH2 [Example 548] | % | 109 |
| H-Y[Aib]QGTFTSDFS[Orn][αMeL]LDKK([AEEA-γGlu-C18 diacid])AQ[Aib]AFIEWLLEGGESSGAPPPEGS-NH2 [Example 125] | % | 42.6 |
| H-Y[Aib]QGTFTSD[4Pal]SR[αMeL]LDKK([AEEA-γGlu-C18 diacid])AQ[αMe4Pal]AFIEYLIE[Aib]GESSGAPPPSGE-NH2 [Example 225] | % | 56.7 |
| H-Y[Aib]QGTFTSDFS[Orn][αMeL]LDKK([AEEA-γGlu-C18 diacid])AQ[Aib]AFIEYLLAGGPSSGAPPPEGE-NH2 [Example 99] | % | 46.1 |
| H-Y[Aib]QGTFTSD[4Pal]SQ[αMeL]LDKK([AEEA-γGlu-C18 diacid])AQ[αMe4Pal]AFIEYLIE[Aib]GESSGAPPPSGS-NH2 [Example 226] | % | 59.3 |
| H-Y[Aib]QGTFTSDFSK[αMeL]LDKK([AEEA-γGlu-C18 diacid])AQ[Aib]QFIEYLLEGGPSSGAPPPSEG-NH2 [Example 51] | % | 55.7 |
| H-Y[Aib]QGTFTSDYSR[αMeL]LDKK([AEEA-γGlu-C18 diacid])AQ[Aib]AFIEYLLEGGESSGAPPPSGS-NH2 [Example 361] | % | 73 |
| H-Y[Aib]QGTFTSDFSK[αMeL]LDKK([AEEA-γGlu-C18 diacid])AQ[Aib]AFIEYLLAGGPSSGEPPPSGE-NH2 [Example 23] | % | 67.2 |
| H-Y[Aib]QGTFTSDFS[Orn][αMeL]LDKK([AEEA-AEEA-γGlu-C20 diacid])AQ[Aib]AFIEYLLE[Aib]GPSSGEPPPGEG-NH2 [Example 69] | % | 58.2 |
| H-Y[Aib]QGTFTSDFS[Orn][αMeL]LDKK([AEEA-AEEA-γGlu-C18 diacid])AQ[Aib]AFIEYLLEGGPSSGAPPPSGE-NH2 [Example 107] | % | 45.1 |
| Y[Aib]QGTFTSDFSQ[αMeL]LDKK([AEEA-γGlu-C18 diacid])AQ[αMe4Pal]AFIEYLIE[Aib]GESSGAPPPSGS-NH2 [Example 232] | % | 45.5 |
| H-Y[Aib]QGTFTSDFSK[αMeL]LDKK([AEEA-γGlu-C20 diacid])AQ[Aib]AFIEYLLAGGPSSGEPPPSEE-NH2 [Example 4] | % | 67.8 |
| H-Y[Aib]QGTFTSDFS[Orn][αMeL]LDKK([AEEA-AEEA-γGlu-C18 diacid])AQ[Aib]AFIEYLLE[Aib]GPSSGEPPPSGT-NH2 [Example 167] | % | 44.7 |
| Y[Aib]QGTFTSD[4Pal]SK[αMeL]LDKK([AEEA-γGlu-C20 diacid])AQ[Aib]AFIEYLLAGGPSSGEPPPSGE-NH2 [Example 28] | % | 76.2 |
| H-Y[Aib]QGTFTSDFS[Orn][αMeL]LDKK([AEEA-AEEA-γGlu-C18 diacid])AQ[Aib]AFIEYLLE[dA]GPSSGHPPPSG[4Pal]-NH2 [Example 256] | % | 43.5 |
| H-Y[Aib]QGTFTSDYSQ[αMeL]LDKK([AEEA-γGlu-C18 diacid])AQ[Aib]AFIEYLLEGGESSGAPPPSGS-NH2 [Example 362] | % | 77.5 |
| H-Y[Aib]QGTFTSDFS[Orn][αMeL]LDKK([AEEA-AEEA-γGlu-C18 diacid])AQ[Aib]AFIEYLLE[Aib]G[4Pal]SSGAPPPSGS-NH2 [Example 183] | % | 45.4 |
| H-Y[Aib]QGTFTSDYSI[αMeL]LDKIAAK([AEEA-AEEA-γGlu-C20 diacid])QFVQWLIE[Aib]GPSSGEPPPSEG-NH2 [Example 323] | % | 84.8 |
| Y[Aib]QGTFTSDFS[Orn][αMeL]LDKK([AEEA-AEEA-γGlu-C18 diacid])AQ[Aib]AFIEYLLE[dA]GPSSGEPPPSEG-NH2 [Example 116] | % | 46.2 |
| H-Y[Aib]QGTFTSDFSK[αMeL]LDKK([γGlu-γGlu-C18 diacid])AQ[Aib]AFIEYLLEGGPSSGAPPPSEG-NH2 [Example 58] | % | 78.1 |

// data source = patent US20240270821A1
